Molecular target: T1, recombinant human CTGF-Fc protein (Creative Biomart) (human)
T1 construct: Bought; also called human CTGF with a human IgG1 Fc Tag
T1 sequence (chain, as listed by the source limits assumed): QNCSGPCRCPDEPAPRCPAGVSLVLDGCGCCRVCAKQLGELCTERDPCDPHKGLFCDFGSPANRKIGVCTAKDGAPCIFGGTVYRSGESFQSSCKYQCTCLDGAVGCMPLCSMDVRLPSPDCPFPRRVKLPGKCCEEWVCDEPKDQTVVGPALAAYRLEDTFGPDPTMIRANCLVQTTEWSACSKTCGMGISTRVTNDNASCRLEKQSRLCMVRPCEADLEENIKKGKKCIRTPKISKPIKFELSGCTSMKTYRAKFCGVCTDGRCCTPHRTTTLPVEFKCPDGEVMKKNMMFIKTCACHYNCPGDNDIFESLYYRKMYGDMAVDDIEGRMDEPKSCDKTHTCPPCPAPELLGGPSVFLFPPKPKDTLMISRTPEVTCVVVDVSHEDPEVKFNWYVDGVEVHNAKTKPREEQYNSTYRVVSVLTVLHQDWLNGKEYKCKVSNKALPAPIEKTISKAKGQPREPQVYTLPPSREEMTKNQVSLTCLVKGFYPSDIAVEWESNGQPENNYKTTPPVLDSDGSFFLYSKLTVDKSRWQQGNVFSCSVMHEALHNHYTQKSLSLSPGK
Test: SPR (Biacore)
Procedure: The binding of exemplary lipocalin muteins to human (Creative Biomart), cynomolgus, rat (R&D Systems) and mouse CTGF (Abbexa) was determined by SPR using a Biacore instrument (Cytiva, formerly GE Healthcare). Some targets were fused to a human IgG1 Fc tag, and captured via the anti-human IgG antibody kit, others were directly immobilized. For some measurements, human CTGF with a human IgG1 Fc Tag or rat or murine CTGF without a tag were directly immobilized to a CM5 Chip. […]
Listing: Kd of selected binders
OUTCOME MEASURE: Kd (nM)

lipocalin mutein of SEQ ID NO: 35 (designed binder, also called hNGAL mutein; not shown: C-terminal His-tag) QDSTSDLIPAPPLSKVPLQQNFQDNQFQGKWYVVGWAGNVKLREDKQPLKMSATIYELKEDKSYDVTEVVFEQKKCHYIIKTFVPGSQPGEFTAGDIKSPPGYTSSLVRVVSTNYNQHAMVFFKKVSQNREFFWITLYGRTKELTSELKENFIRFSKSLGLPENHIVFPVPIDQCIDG :: 0.55
lipocalin mutein of SEQ ID NO: 15 (designed binder, also called hNGAL mutein; not shown: C-terminal His-tag) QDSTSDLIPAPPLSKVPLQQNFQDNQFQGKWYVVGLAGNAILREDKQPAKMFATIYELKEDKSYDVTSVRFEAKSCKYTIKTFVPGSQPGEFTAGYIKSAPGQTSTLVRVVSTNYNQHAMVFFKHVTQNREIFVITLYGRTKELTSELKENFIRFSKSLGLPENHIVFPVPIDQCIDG :: 0.547
lipocalin mutein of SEQ ID NO: 24 (designed binder, also called hNGAL mutein) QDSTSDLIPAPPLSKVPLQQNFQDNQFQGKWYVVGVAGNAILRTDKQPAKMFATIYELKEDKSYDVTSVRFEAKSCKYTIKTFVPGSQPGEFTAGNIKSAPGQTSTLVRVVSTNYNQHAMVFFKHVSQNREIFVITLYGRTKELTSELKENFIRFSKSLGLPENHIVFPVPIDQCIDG :: 0.09
lipocalin mutein of SEQ ID NO: 11 (designed binder, also called hNGAL mutein; not shown: C-terminal His-tag) QDSTSDLIPAPPLSKVPLQQNFQDNQFQGKWYVVGLAGNAILREDKQPAKMFATIYELKEDKSYDVTSVRFEAKSCSYTSKTFVPGSQPGEFTAGNIKSAPGQTSTLVRVVSTNYNQHAMVFFKHVSQNRETFVITLYGRTKELTSELKENFIRFSKSLGLPENHIVFPVPIDQCIDG :: 2.44
lipocalin mutein of SEQ ID NO: 23 (designed binder, also called hNGAL mutein) QDSTSDLIPAPPLSKVPLQQNFQDNQFQGKWYVVGVAGNAILRPDKQPAKMFATIYELKEDKSYDVTSVRFEAKSCKYTIKTFVPGSQPGEFTSGQIKSAPGQTSTLVRVVSTNYNQHAMVFFKHVSQNREIFVITLYGRTKELTSELKENFIRFSKSLGLPENHIVFPVPIDQCIDG :: 0.077
lipocalin mutein of SEQ ID NO: 5 (designed binder, also called hNGAL mutein; not shown: C-terminal His-tag) QDSTSDLIPAPPLSKVPLQQNFQDNQFQGKWYVVGKAGNALREDKEPPKMWATIYELKEDKSYDVTHVHFLTKKCKYLIDTFVPGSQPGEFTIGAIKSGPGLTSPLVRVVSTNYNQHAMVFFKWVSQNREWFTITLYGRTKELTSELKENFIRFSKSLGLPENHIVFPVPIDQCIDG :: 0.315
